tested on: seizures in individuals with WHS; test: Parent-reported responses to seizure medications, questionnaire of the 48-individual WHS cohort (Example 1); type: in vivo, human; details: number of unprompted parent reports of significant and observable increase in control over seizures; n users per drug
This listing pairs molecules with measured Positive reports.
Measured quantity: Positive reports

# Molecule, Reported result
data = [
    ("CC1(C)O[C@@H]2[C@@H](CO[C@@]3(COS(N)(=O)=O)OC(C)(C)O[C@@H]23)O1 [Topiramate]", 1),
    ("CCC1(c2ccccc2)C(=O)NC(=O)NC1=O [Phenobarbital]", 0),
    ("CCCC(CCC)C(=O)O [Valproic acid]", 2),
    ("CC[C@@H](C(N)=O)N1CCCC1=O [Levetiracetam]", 4),
]
